Tested on: DeltatarO mutant
Experiment: S. aureus survival, RN4220 and DeltatarO strains – OD600, teichoic acid synthesis inhibitors, primary screen (AID 463173)
Details: S. aureus RN4220 wild type/DeltatarO growth, OD600, 18 h, screened at 18.75 µg/mL (by protocol)
Hit rate of the full screen: of about 52,000 compounds, about 4,300 (8.3%) were called active. Rule as the data show it: active = survival mostly below about 52% (no sharp cut-off); inactive = mostly above about 56%. The entries come from a sample that favours actives as a whole.
Outcome codes: True = active, False = inactive

# Compound, Class Label
rows = [
    ("Cc1cc(N2CCCCC2)nc2ccc(NC(=O)CCC(=O)N3CCN(c4ccccc4)CC3)cc12", "False"),
    ("CCN1CCN(c2cc(C)c3cc(NC(=O)c4cc(Br)ccc4Cl)ccc3n2)CC1", "True"),
    ("Cc1ccc(N2C(=O)CSC23C(=O)N(CC(=O)NC2CCCCC2)c2ccccc23)cc1C (stereo not given)", "False"),
    ("CC(C)CCNC(=O)c1ccc2c(c1)NC(=O)C(CS(=O)(=O)Cc1ccc(F)cc1)N2 (stereo not given)", "False"),
    ("O=C(CCNS(=O)(=O)c1ccc2c(c1)CCCC(=O)N2)NCc1ccc(Cl)cc1", "False"),
    ("Cc1cc(N2CCN(C)CC2)nc2ccc(NC(=O)Nc3ccc(Cl)cc3)cc12", "False"),
    ("Cc1ccc(C(=O)Nc2ccc3nc(N4CCCCC4)cc(C)c3c2)cc1F", "False"),
    ("Cc1cc(N2CCCCC2)nc2ccc(NC(=O)c3cccc(Cl)c3)cc12", "True"),
    ("COc1ccccc1CN1CCN(C(CC(C)C)c2nnnn2Cc2ccc(F)cc2)CC1 (stereo not given)", "False"),
    ("Cc1ccc(N(CC(C)C)S(=O)(=O)c2nnc(NC(=O)C(C)C)s2)cc1", "False"),
    ("Cc1cc(C)c(-c2n[nH]c3c2C(c2ccccc2F)N(Cc2ccco2)C3=O)c(O)c1 (stereo not given)", "True"),
    ("COC(=O)c1ccccc1NC(=O)c1ncoc1-c1ccco1", "False"),
    ("NC(=O)CSc1nc2cc3c(cc2c(=O)n1CCCCCC(=O)NCc1ccc2c(c1)OCO2)OCO3", "False"),
    ("Cc1cc(N2CCCCC2)nc2ccc(NC(=O)c3cccc(F)c3)cc12", "False"),
    ("COc1ccc(C(=O)Nc2nnc(S(=O)(=O)N(CC(C)C)c3ccc(C)cc3)s2)cc1OC", "False"),
    ("CCCC12CN3CC(C)(CN(C1)C3c1ccc(OCc3ccccc3)cc1)C2=O (stereo not given)", "False"),
    ("COc1ccc(C(=O)Nc2nnc(S(=O)(=O)N(CC(C)C)c3ccccc3)s2)cc1", "False"),
    ("Cc1cc(N2CCN(C)CC2)nc2ccc(NC(=O)Nc3cccc(Cl)c3)cc12", "False"),
    ("Cc1cc(C)c2c(=O)c3c(oc2c1)C(=O)N(Cc1ccco1)C3c1ccccc1F (stereo not given)", "False"),
    ("COc1ccc(NC(=O)C2CCN(c3nc4ccccc4[nH]3)CC2)cc1OC", "False"),
]
